Values were extracted from ChEMBL document CHEMBL4043192.

protocolNotes: Inhibition of HCV genotype 5a NS5B RNA dependent RNA polymerase assessed as reduction in [33P]-labeled nucleotide incorporation in to RNA template after 2 hrs by liquid scintillation counting method
Set-up: species or system Hepatitis C virus subtype 5a
propertyName: pIC50
Value format note: pIC50 is -log10 of concentration (mol/L); just state the number.

Query: pIC50; subject: C[C@@]1(Cl)[C@H](O)[C@@H](COP(=O)(O)OP(=O)(O)OP(=O)(O)O)O[C@H]1n1ccc(=O)[nH]c1=O
6.64

* * *

Documented Ratio CC50/EC50 across a set of molecules
protocolNotes: Selectivity index, ratio of CC50 for human Huh-7 cells to EC50 for HCV genotype 1b Con1 expressing NS3 protease

A selection of reference data follows.
CC(C)OC(=O)[C@@H](N[P@@](=O)(OC[C@H]1O[C@@H](n2ccc(=O)[nH]c2=O)[C@](C)(Cl)[C@@H]1O)Oc1ccccc1)C(C)C ... >1
CC(C)(CO)C(=O)SCCO[P@@]1(=O)OC[C@H]2O[C@@H](n3ccc(=O)[nH]c3=O)[C@](C)(Cl)[C@@H]2O1 ... >240
CC(C)OC(=O)[C@H](C)N[P@]1(=O)OC[C@H]2O[C@@H](n3ccc(=O)[nH]c3=O)[C@](C)(Cl)[C@@H]2O1 ... >197

Query: Ratio CC50/EC50; subject: CC(C)C[C@H](N[P@](=O)(OC[C@H]1O[C@@H](n2ccc(=O)[nH]c2=O)[C@](C)(Cl)[C@@H]1O)Oc1ccccc1)C(=O)OC(C)C
>90

Query: Ratio CC50/EC50; subject: C[C@H](N[P@@](=O)(OC[C@H]1O[C@@H](n2ccc(=O)[nH]c2=O)[C@](C)(Cl)[C@@H]1O)Oc1ccccc1)C(=O)OCc1ccccc1
>541

Query: Ratio CC50/EC50; subject: CC(C)(CO)C(=O)SCCOP(=O)(NCc1ccccc1)OC[C@H]1O[C@@H](n2cnc3c(=O)[nH]c(N)nc32)[C@](C)(O)[C@@H]1O (stereo partly specified)
>370

Query: Ratio CC50/EC50; subject: CC(C)OC(=O)[C@H](C)N[P@](=O)(OC[C@H]1O[C@@H](n2ccc(=O)[nH]c2=O)[C@](C)(Cl)[C@@H]1O)Oc1ccccc1
>633

* * *

protocolNotes: Half life in human hepatocytes
Format: ADME, cell-based, Hepatocyte
propertyName: half-life

Query: half-life; subject: C[C@@]1(Cl)[C@H](O)[C@@H](COP(=O)(O)OP(=O)(O)OP(=O)(O)O)O[C@H]1n1ccc(=O)[nH]c1=O
> 18 h

* * *

systemName: DNA-directed RNA polymerase, mitochondrial (Homo sapiens)
Sequence (O00411 whole entry): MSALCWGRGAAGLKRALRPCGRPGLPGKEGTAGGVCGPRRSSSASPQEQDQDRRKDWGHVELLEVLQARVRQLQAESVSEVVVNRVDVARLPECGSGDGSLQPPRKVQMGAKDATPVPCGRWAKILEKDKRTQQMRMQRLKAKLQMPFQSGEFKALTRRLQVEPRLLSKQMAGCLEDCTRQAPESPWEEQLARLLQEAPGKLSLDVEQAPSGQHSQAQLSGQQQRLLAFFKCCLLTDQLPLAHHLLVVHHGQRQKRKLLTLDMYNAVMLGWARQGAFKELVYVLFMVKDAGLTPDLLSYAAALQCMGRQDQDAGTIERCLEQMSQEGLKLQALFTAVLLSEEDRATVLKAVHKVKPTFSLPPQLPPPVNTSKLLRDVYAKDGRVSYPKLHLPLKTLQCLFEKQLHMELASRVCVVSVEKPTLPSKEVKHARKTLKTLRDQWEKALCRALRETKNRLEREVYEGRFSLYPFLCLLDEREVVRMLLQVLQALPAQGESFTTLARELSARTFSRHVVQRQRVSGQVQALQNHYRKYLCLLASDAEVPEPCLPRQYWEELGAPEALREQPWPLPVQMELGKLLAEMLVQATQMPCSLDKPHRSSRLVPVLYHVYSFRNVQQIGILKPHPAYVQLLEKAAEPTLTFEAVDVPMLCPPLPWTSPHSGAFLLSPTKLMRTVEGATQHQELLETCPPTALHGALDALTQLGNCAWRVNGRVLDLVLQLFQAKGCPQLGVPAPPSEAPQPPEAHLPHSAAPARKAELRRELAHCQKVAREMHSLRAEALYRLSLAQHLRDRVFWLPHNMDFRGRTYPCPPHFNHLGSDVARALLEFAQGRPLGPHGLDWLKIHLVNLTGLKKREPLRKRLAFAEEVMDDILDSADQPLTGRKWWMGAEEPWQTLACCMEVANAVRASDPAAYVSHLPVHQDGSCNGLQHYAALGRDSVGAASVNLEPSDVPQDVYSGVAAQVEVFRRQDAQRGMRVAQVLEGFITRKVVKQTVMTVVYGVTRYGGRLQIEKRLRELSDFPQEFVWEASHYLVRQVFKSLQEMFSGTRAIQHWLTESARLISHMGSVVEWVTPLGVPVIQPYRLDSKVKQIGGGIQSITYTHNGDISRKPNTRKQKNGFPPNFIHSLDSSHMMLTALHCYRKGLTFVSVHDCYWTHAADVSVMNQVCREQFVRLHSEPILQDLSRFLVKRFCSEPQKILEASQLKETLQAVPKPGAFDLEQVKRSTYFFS
propertyName: IC50

Field: IC50 (DNA-directed RNA polymerase, mitochondrial (Homo sapiens)). Entry: C[C@@]1(Cl)[C@H](O)[C@@H](COP(=O)(O)OP(=O)(O)OP(=O)(O)O)O[C@H]1n1ccc(=O)[nH]c1=O
> 500 µM

* * *

Tested on: Liver
protocolNotes: Dose normalized AUC (0 to 24 hrs) in mouse liver assessed as 2'-C-MeUTP level at 10 mg/kg, po administered as single dose
Format: ADME, organism-based
reportedConditions: in vivo
propertyName: AUC/dose (pmol·h/g)
Record the value in pmol·h/g, omitting the unit from your answer.

A selection of reference data follows.
CC(C)OC(=O)[C@@H](C)N[P@](=O)(OC[C@H]1O[C@@H](n2ccc(=O)[nH]c2=O)[C@](C)(Cl)[C@@H]1O)Oc1ccccc1 ... 3750
CCCCOC(=O)[C@@H](C)N[P@](=O)(OC[C@H]1O[C@@H](n2ccc(=O)[nH]c2=O)[C@](C)(Cl)[C@@H]1O)Oc1ccccc1 ... 7200
C[C@H](N[P@](=O)(OC[C@H]1O[C@@H](n2ccc(=O)[nH]c2=O)[C@](C)(Cl)[C@@H]1O)Oc1ccccc1)C(=O)OCc1ccccc1 ... 850
CCOC(=O)[C@H](C)N[P@](=O)(OC[C@H]1O[C@@H](n2ccc(=O)[nH]c2=O)[C@](C)(Cl)[C@@H]1O)Oc1ccccc1 ... 400
CCOC(=O)[C@H](C)N[P@@](=O)(OC[C@H]1O[C@@H](n2ccc(=O)[nH]c2=O)[C@](C)(Cl)[C@@H]1O)Oc1ccccc1 ... 840

Query: AUC/dose; subject: CC(C)OC(=O)[C@@H](C)N[P@@]1(=O)OC[C@H]2O[C@@H](n3ccc(=O)[nH]c3=O)[C@](C)(Cl)[C@@H]2O1
2400

* * *

systemName: DNA polymerase alpha catalytic subunit (Homo sapiens)
Sequence (P09884 whole entry): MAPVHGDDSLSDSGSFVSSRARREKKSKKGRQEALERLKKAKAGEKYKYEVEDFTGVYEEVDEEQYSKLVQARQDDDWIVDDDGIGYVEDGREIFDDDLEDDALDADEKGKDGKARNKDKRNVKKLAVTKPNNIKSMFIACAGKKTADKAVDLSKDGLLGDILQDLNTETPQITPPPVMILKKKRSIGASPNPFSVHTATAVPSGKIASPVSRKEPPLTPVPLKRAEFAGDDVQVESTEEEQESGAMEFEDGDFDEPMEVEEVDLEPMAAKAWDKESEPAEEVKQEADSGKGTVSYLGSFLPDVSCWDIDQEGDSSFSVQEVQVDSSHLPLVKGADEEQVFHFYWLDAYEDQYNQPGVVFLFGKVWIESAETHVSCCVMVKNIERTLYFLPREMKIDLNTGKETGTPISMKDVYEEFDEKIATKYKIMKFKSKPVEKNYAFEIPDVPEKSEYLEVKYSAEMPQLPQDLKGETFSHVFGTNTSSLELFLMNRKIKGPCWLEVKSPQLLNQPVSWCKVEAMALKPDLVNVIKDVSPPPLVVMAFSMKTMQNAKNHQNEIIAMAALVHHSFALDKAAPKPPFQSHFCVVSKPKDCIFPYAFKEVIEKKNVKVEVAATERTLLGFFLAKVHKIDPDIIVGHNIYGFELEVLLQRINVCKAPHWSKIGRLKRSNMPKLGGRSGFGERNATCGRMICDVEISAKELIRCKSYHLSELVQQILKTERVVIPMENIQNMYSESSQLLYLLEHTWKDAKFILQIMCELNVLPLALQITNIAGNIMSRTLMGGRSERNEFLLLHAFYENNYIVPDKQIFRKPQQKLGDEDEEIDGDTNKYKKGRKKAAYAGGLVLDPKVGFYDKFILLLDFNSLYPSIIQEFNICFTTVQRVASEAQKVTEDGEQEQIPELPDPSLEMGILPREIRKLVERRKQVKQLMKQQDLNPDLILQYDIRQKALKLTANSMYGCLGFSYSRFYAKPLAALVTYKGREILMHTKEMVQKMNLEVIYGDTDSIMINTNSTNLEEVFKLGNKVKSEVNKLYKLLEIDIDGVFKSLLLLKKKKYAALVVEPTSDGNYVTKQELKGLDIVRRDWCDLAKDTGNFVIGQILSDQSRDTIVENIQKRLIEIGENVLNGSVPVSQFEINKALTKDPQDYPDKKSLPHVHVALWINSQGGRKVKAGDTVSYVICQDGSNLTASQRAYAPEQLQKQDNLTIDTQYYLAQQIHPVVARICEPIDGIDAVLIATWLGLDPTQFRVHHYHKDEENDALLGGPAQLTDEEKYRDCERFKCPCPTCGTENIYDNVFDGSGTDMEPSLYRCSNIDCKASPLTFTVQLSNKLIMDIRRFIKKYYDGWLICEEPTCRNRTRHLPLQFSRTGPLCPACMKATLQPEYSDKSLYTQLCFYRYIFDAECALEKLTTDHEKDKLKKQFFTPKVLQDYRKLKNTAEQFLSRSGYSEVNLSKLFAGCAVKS
protocolNotes: Inhibition of human DNA polymerase alpha
propertyName: IC50

Query: IC50; subject: C[C@@]1(Cl)[C@H](O)[C@@H](COP(=O)(O)OP(=O)(O)OP(=O)(O)O)O[C@H]1n1ccc(=O)[nH]c1=O
> 500 µM

* * *

Tested on: Plasma
protocolNotes: Dose normalized AUC (0 to 24 hrs) in mouse plasma assessed as 2'-C-MeU level at 10 mg/kg, po administered as single dose
Format: ADME, organism-based
reportedConditions: in vivo
Documented AUC/dose across a set of molecules
Record the value in pmol·h/mL, omitting the unit from your answer.

CC(C)OC(=O)[C@@H](C)N[P@@](=O)(OC[C@H]1O[C@@H](n2ccc(=O)[nH]c2=O)[C@](C)(Cl)[C@@H]1O)Oc1ccccc1 ... 1400
C[C@@H](N[P@](=O)(OC[C@H]1O[C@@H](n2ccc(=O)[nH]c2=O)[C@](C)(Cl)[C@@H]1O)Oc1ccccc1)C(=O)OCc1ccccc1 ... 1700

API: the following record is the query input.
Query: AUC/dose; subject: CCOC(=O)[C@H](C)N[P@](=O)(OC[C@H]1O[C@@H](n2ccc(=O)[nH]c2=O)[C@](C)(Cl)[C@@H]1O)Oc1ccccc1
1100

* * *

protocolNotes: Inhibition of HCV genotype 4a NS5B RNA dependent RNA polymerase assessed as reduction in [33P]-labeled nucleotide incorporation in to RNA template after 2 hrs by liquid scintillation counting method
Parameters: species or system Hepatitis C virus subtype 4a
propertyName: IC50 (nM)
Record the value in nM, omitting the unit from your answer.

Query: IC50; subject: C[C@@]1(Cl)[C@H](O)[C@@H](COP(=O)(O)OP(=O)(O)OP(=O)(O)O)O[C@H]1n1ccc(=O)[nH]c1=O [4A-TP]
150
